- tested target: Neu5Ac(a2-8)Neu5Ac(a2-3)[GalNAc(b1-4)]Gal(b1-4)Glc
- protocol description: glycan array binding signal (z-score within array); higher = stronger binding
- measurement parameters: glycan notation: IUPAC condensed, linker removed
This excerpt belongs to a sample that is enriched for the strongest signals.
property: glycan array binding signal (z-score)
Provide a numeric answer; units are not to be included.

Ask: Bench note: what glycan array binding signal (z-score) did SAG3 (Toxoplasma gondii), Q9BJ39 (protein) MQLWRRRAAGPASLGRQSLPLGCFFAAFGLCVLSAILGTGERGLFVAAGNSRRKITYFGTLTQKAPNWYRCSSTRAKEEVVGHVTLNKEHPDMTIECVDDGLGGEFLPLEGARSSYPRVCHIDAKDQDDCERNRGFLTDYIPGAKQYWYKIEKVEQNGEQSVLYKFTVPWILLPPAKQRYKVGCRYPNHEYCFVEVTVEPTPPMVEGKRVTCGYSESGPVNLEVDLSKNANFIEIRCGEQHHPQPSTYTLQYCSGDSVDPQKCSPQSLTNIFYDYSSSWWKGKLNGPDGATLTIPPGGFPEEDKSFLVGCSLTVDGPPFCNVKVRVAGNPRKWERGGGGHPGSGGLQPGTDGETQAGTGSSAGASSRMASVALAFLLGLLVHVAA show?
Result: 2.27

Ask: Next up: Pwp5 ND (Candida glabrata) (protein) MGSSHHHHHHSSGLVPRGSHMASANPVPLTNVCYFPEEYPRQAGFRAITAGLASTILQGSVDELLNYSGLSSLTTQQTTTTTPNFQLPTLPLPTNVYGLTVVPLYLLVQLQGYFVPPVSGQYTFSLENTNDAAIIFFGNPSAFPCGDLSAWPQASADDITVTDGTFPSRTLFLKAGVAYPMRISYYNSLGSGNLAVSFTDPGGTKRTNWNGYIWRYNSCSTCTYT
Result: 0.315

Ask: GNAT (Pseudomonas aeruginosa), Q9HV14 (protein) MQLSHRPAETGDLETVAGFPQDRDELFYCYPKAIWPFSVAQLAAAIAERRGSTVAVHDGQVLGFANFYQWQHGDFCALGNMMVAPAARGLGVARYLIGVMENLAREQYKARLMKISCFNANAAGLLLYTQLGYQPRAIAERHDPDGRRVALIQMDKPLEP ?
Result: -0.165

Ask: Repeat with Pwp3 (Candida glabrata) (protein) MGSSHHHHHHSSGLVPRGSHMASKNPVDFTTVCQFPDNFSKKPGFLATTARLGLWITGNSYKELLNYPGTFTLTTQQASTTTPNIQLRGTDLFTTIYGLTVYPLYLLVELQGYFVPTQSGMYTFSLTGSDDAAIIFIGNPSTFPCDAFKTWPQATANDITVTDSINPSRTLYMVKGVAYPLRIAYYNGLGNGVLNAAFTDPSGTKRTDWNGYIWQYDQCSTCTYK
Result: 4.12

Ask: Param item: Tp0751, 83732 (protein) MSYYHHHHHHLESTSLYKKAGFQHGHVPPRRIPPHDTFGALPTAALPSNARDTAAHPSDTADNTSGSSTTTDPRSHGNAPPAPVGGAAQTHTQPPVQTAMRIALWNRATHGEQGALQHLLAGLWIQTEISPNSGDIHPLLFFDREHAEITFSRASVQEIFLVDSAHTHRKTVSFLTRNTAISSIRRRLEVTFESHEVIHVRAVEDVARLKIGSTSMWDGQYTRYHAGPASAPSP
Result: -0.022

Data credit: the supplement of paper PMC8728848
